- targetOrSystem: human Siglec-7 on primary human monocyte-derived dendritic cells (human, UniProt Q9Y286 19-467)
- Sequence (Q9Y286 19-467): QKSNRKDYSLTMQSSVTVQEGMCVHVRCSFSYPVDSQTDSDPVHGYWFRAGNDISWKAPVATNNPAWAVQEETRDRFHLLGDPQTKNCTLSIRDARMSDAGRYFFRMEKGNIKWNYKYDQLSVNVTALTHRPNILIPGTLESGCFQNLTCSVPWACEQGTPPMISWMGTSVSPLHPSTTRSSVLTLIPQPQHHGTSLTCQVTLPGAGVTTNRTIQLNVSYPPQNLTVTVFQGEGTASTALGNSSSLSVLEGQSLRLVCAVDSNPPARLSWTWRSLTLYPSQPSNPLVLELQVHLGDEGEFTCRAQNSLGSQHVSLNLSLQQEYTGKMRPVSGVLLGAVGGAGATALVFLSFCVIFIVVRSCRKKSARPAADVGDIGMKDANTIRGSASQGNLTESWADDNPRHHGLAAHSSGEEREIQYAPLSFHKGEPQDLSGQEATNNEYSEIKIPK
- assayName: cell-based or functional assay
endpointLabel: Fold increase in potency compared to Chimeric Ab

// sample S7AB-H8.19 (antibody, V domains shown) VH: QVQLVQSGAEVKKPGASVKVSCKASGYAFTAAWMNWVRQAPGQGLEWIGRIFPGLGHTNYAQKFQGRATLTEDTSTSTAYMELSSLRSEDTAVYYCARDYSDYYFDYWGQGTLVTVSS VL: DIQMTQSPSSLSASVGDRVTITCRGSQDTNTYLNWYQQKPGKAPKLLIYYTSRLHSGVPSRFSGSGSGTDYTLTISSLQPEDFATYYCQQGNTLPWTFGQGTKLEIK , its Fold increase in potency compared to Chimeric Ab was 10.5 fold

// sample S7AB-H8.21 (antibody, V domains shown) VH: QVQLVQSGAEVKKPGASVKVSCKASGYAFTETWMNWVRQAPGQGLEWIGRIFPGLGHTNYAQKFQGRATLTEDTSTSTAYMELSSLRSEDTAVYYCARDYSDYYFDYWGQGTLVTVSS VL: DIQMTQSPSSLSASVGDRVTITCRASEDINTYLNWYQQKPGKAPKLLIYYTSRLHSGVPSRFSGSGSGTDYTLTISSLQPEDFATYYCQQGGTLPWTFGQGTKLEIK , its Fold increase in potency compared to Chimeric Ab was 6.8 fold

// sample S7AB-H8.37 (antibody, V domains shown) VH: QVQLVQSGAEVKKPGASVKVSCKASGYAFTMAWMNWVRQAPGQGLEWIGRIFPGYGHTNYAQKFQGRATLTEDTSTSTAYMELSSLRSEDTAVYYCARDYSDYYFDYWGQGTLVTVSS VL: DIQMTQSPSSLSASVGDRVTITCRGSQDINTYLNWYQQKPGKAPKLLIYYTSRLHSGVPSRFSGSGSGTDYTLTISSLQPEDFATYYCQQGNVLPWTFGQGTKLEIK , its Fold increase in potency compared to Chimeric Ab was 14.3 fold

// sample S7AB-H8.30.2 (antibody, V domains shown) VH: QVQLVQSGAEVKKPGASVKVSCKASGYAFTEAWMNWVRQARGQRLEWIGRIFPGYGHTNYAQKFQGRATLTEDTSTSTAYMELSSLRSEDTAVYYCARDYSDYYFDYWGQGTLVTVSS VL: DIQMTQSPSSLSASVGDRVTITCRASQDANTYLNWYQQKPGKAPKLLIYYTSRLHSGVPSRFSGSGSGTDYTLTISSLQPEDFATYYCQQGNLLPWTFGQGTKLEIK , its Fold increase in potency compared to Chimeric Ab was 9.4 fold

// sample S7AB-H8.9 (antibody, V domains shown) VH: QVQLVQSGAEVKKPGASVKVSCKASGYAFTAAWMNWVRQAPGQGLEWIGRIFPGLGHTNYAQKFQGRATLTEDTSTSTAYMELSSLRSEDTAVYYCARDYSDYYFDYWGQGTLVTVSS VL: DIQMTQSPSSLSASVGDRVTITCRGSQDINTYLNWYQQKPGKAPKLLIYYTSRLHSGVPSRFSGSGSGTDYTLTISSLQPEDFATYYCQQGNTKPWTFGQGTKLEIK , its Fold increase in potency compared to Chimeric Ab was 8.8 fold

// sample S7AB-H8.44 (antibody, V domains shown) VH: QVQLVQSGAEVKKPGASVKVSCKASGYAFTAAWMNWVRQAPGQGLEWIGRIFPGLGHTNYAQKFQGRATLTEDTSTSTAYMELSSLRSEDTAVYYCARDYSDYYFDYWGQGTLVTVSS VL: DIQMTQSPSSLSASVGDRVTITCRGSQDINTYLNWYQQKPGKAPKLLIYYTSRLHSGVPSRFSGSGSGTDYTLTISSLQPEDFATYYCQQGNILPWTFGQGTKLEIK , its Fold increase in potency compared to Chimeric Ab was 16.7 fold

// sample S7AB-H8.25 (antibody, V domains shown) VH: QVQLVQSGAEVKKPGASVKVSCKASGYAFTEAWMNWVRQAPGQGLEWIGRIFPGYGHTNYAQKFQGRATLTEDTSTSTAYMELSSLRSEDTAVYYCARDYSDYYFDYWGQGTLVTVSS VL: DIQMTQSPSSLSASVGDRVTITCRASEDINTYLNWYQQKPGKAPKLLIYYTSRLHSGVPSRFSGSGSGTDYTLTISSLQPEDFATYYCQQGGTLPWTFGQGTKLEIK , its Fold increase in potency compared to Chimeric Ab was 5.4 fold

// sample S7AB-H8.30 (antibody, V domains shown) VH: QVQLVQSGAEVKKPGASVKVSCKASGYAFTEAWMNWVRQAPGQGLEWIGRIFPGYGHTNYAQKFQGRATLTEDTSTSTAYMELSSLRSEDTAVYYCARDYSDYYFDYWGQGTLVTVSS VL: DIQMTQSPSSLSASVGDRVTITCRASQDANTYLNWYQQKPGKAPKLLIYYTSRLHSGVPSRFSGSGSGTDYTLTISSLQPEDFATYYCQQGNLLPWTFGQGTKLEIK , its Fold increase in potency compared to Chimeric Ab was 8.2 fold

// sample S7AB-H8.45.2 (antibody, V domains shown) VH: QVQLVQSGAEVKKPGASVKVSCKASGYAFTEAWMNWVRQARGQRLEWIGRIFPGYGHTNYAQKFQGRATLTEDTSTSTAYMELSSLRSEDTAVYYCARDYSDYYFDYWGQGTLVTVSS VL: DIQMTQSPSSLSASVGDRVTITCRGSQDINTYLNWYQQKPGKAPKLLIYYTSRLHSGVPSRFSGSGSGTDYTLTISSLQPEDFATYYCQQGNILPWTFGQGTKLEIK , its Fold increase in potency compared to Chimeric Ab was 9.9 fold

// sample S7AB-H8 (antibody, V domains shown, also called parental humanized antibody) VH: QVQLVQSGAEVKKPGASVKISCKASGYAFTNCWMNWVRQAPGQGLEWIGRIFPGNGHTNYAQKFQGRATLTEDTSTSTAYMELSSLRSEDTAVYYCARDYSDYYFDYWGQGTLVTVSS VL: DIQMTQSPSSLSASVGDRVTITCRASQDINTYLNWYQQKPGKAPKLLIYYTSRLHSGVPSRFSGSGSGTDYTLTISSLQPEDFATYYCQQGNTLPWTFGQGTKLEIK , its Fold increase in potency compared to Chimeric Ab was 3 fold
